The origin of these recorded values is patent US9180116B2.

tgt: rat EP4 receptor (Rattus norvegicus (Rat))
Sequence (P43114 whole entry): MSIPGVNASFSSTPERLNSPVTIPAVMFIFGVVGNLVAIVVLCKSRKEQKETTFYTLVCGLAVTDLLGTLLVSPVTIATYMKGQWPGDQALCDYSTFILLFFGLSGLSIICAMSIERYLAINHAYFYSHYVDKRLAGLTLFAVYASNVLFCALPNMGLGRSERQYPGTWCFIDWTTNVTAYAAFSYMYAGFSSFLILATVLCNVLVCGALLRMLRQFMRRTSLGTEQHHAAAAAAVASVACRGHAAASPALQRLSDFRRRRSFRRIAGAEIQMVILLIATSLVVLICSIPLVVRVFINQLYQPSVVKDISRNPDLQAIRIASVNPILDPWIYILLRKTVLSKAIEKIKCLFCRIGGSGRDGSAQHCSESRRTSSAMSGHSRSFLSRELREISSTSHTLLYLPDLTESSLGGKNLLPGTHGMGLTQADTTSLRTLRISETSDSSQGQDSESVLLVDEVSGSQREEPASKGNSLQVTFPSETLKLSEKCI
experiment-description: cAMP level assay for EP4 agonist (STEP plate format)
Assay type: cell-based
applied-conditions: cAMP readout, EP4; read-out: STEP cell functional assay EC50 cAMP/EP4
quantity-kind: pEC50
Note: pEC50 values are expressed as the negative base-10 logarithm of concentration in M.

C[C@@H](CCCCc1ccccc1)[C@@H](O)/C=C/[C@H]1CC(F)(F)C(=O)N1CCCc1ccc(C(=O)O)s1 [Example 38D]; 9.43
C[C@@H](Cc1ccccc1)[C@H](O)/C=C/[C@H]1CC(F)(F)C(=O)N1CCCc1ccc(C(=O)O)s1 [Example 36C]; 10.42

// query Recorded pEC50 for C[C@@H](c1ccccc1)[C@H](O)/C=C/[C@H]1CC(F)(F)C(=O)N1CCCc1ccc(C(=O)O)s1 [Example 35C] , please?
// result 7.21

// query I'd like to know its pEC50. The compound in question is CCCCC[C@H](O)/C=C/[C@H]1CC(F)(F)C(=O)N1CCCc1ccc(C(=O)O)s1 [Example 33C]
// result 10.10

// query # lookup: pEC50 of C[C@@H](CCCCCc1ccccc1)[C@@H](O)/C=C/[C@H]1CC(F)(F)C(=O)N1CCCc1ccc(C(=O)O)s1 [Example 39D]
// result 10.23

---

tgt: rat EP4 receptor (Rattus norvegicus (Rat))
experiment-description: cAMP level assay for EP4 agonist (STEP plate format)
Format: cell-based
applied-conditions: cAMP readout, EP4; read-out: STEP cell functional assay EC50 cAMP/EP4
Text: Functional Cellular Assays (STEP Plate Format) Procedure of cAMP Assay for EP2/EP4 Agonist 3. […] In addition each concentration had triplicates. 6. Aspirate the supernatant.
Listing of entries alongside the reported EC50.
Express it in nM; write the number only.

C[C@@H](CCCc1ccccc1)[C@H](O)CC[C@H]1CC(F)(F)C(=O)N1CCCc1ccc(C(=O)O)s1 [Example 28C-H2]; 0.0029

Next item in the queue.
// query Reported EC50 for COC(=O)c1ccc(CCCN2C(=O)C(F)(F)C[C@@H]2/C=C/[C@@H](O)[C@@H](C)Cc2ccccc2)s1 [Example 36A] : what is it?
// result 5.02

---

tgt: rat EP2 receptor (Rattus norvegicus (Rat))
experiment-description: cAMP level assay for EP2 agonist (STEP plate format)
Type: cell-based
applied-conditions: cAMP readout, read-out: STEP cell functional assay EC50 cAMP/EP2
quantity-kind: EC50 (µM)
Kindly answer with a numeric value in µM, unit omitted.

// query Could you share which EC50 value was measured for C[C@@H](CCCc1ccccc1)[C@H](O)CC[C@H]1CC(F)(F)C(=O)N1CCCc1ccc(C(=O)O)s1 [Example 28C-H2] ?
// result 1.31

---

tgt: rat EP4 receptor (Rattus norvegicus (Rat))
experiment-description: SEAP activity assay for EP4 agonist (STEP plate format)
Type: cell-based
applied-conditions: SEAP readout, EP4; read-out: STEP cell functional assay EC50 SEAP/EP4
quantity-kind: EC50
The answer consists of two parts: a number and, after it, its unit.

// query Which EC50 reading was recorded for the compound CCCCC[C@H](O)/C=C/[C@H]1CC(F)(F)C(=O)N1CCCc1ccc(C(=O)O)s1 [Example 33C] ?
// result 0.063 nM

---

tgt: rat EP2 receptor (Rattus norvegicus (Rat), UniProt Q62928)
Sequence (Q62928 whole entry): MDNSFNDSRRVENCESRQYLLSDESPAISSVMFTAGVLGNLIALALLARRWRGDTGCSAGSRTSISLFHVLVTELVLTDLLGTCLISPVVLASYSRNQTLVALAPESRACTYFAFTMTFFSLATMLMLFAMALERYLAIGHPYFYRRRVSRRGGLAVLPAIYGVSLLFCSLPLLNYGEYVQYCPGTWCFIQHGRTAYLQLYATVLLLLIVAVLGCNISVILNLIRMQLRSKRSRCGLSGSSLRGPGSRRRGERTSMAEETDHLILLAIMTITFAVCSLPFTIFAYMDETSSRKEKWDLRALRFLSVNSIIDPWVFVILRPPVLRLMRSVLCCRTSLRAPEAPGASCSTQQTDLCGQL
experiment-description: SEAP activity assay for EP2 agonist (STEP plate format)
Type: cell-based
applied-conditions: SEAP luminescence, 6-8 hours of stimulation; read-out: STEP cell functional assay EC50 SEAP/EP2
quantity-kind: EC50

// query Please state recorded EC50 (tested on rat EP2 receptor (Rattus norvegicus (Rat), UniProt Q62928)) of CCCCC[C@H](O)/C=C/[C@H]1[C@H](O)CC(=O)[C@@H]1CCCCCCC(=O)O [PGE1, reference compound]
// result 16.5 nM

// query Give the reported EC50 for CCC#CC[C@H](C)[C@H](O)/C=C/[C@H]1CC(F)(F)C(=O)N1CCc1ccc(C(=O)O)cc1 [Example 12D] (system: rat EP2 receptor (Rattus norvegicus (Rat), UniProt Q62928)).
// result 1630 nM

// query Give EC50 (rat EP2 receptor (Rattus norvegicus (Rat), UniProt Q62928)) of the following molecule: CCCCC[C@H](O)/C=C/[C@H]1CC(F)(F)C(=O)N1CCc1ccc(C(=O)O)cc1 [Example 21C]
// result 1960 nM

// query Record `CCC#CC[C@H](C)[C@H](O)/C=C/[C@H]1CC(F)(F)C(=O)N1CCCCCCC(=O)O` : what is its EC50 with rat EP2 receptor (Rattus norvegicus (Rat), UniProt Q62928)?
// result > 1000 nM

// query Enter reported EC50 observed with rat EP2 receptor (Rattus norvegicus (Rat), UniProt Q62928) for `CCCCC[C@H](O)/C=C/[C@H]1CC(F)(F)C(=O)N1CCCCCCC(=O)O`
// result 205 nM
